The entries below come with measured neutralization IC50 values attached.
TARGET_OF_ASSAY: HIV-1 Env of 3016.V5.c36 (HIV-1)
PROTOCOL_DETAILS: cell-based or functional assay
Record the value in µg/mL, omitting the unit from your answer.

// worked examples, neutralization IC50 included
[
  {
    "BINDER": "CAP256-VRC26.02 (antibody, V domains shown) VH: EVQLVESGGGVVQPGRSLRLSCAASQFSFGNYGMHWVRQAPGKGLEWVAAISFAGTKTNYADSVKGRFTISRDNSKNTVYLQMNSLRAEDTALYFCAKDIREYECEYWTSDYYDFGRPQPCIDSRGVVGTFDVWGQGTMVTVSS VL: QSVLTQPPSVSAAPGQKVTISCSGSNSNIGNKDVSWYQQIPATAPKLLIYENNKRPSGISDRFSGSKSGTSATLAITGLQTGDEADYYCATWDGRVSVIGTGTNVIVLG",
    "neutralization IC50, µg/mL": 0.057
  },
  {
    "BINDER": "CAP256-VRC26.11 (antibody, V domains shown) VH: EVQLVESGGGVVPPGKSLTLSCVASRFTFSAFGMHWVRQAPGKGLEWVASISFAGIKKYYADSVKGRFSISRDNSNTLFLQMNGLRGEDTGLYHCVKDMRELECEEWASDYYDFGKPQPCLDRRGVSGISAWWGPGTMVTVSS VL: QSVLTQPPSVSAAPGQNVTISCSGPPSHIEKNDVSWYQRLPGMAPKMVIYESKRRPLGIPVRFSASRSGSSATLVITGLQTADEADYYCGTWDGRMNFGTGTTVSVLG",
    "neutralization IC50, µg/mL": 0.3
  }
]

Please supply the value of reported neutralization IC50 for the item CAP256-VRC26.05 (antibody, V domains shown) VH: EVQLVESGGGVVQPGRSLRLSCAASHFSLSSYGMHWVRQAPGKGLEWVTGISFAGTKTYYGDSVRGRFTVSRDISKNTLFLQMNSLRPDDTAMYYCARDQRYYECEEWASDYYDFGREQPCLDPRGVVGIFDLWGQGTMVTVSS VL: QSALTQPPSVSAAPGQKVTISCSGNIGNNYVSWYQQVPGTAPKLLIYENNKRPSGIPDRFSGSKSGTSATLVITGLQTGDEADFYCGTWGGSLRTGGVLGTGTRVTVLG 0.011

Please supply the value of reported neutralization IC50 for the item CAP256-VRC26.12 (antibody, V domains shown) VH: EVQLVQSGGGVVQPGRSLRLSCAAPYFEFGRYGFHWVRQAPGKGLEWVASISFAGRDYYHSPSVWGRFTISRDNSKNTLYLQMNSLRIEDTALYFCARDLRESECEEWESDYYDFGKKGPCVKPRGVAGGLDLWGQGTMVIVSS VL: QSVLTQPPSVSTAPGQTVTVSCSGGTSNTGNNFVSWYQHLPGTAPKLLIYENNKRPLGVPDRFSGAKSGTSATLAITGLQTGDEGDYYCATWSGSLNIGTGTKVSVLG 7.93
